test: Novel Modifiers of Survival Motor Neuron (SMN) Protein: Gene Identification via Genome-wide siRNA Screen; conditions: HEK293T SMN2-luciferase reporter, siRNA knockdown, 72 h; actives lie on both sides;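 note: luminescence tracks full-length SMN protein made from the SMN2 reporter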
The campaign covered roughly 31,000 sequences. About 1,400 (4.5%) were called active. This excerpt belongs to a sample that is enriched for actives.
PROPERTY_NAME: median seed-adjusted z-score
// no unit, no text: just the number

q: # input sequence: CGAUGUAUGACGAGGAAAATT against BTNL3 ; wanted: its median seed-adjusted z-score
a: 0

q: # input sequence: GAUCUACCCUGCUCACGAUTT against ETHE1 ; wanted: its median seed-adjusted z-score
a: 0

q: # input sequence: GGUCCAACAUGCAAUCCAATT against EDEM3 ; wanted: its median seed-adjusted z-score
a: 0.119

q: # input sequence: CCAUAACAUUCACAAGUGUTT against TRPS1 ; wanted: its median seed-adjusted z-score
a: -0.125

q: # input sequence: GGACUUACCUCAAUCAGAUTT against ZDHHC13 ; wanted: its median seed-adjusted z-score
a: -0.381

q: # input sequence: GCACUGUCUACAUCCCUGATT against RHCG ; wanted: its median seed-adjusted z-score
a: 0.375

q: # input sequence: GGUGAAGGUAGAUCAAAGATT against EIF2AK2 ; wanted: its median seed-adjusted z-score
a: 0.419

q: # input sequence: GCUGCAACCUUGACUACUATT against RRM1 ; wanted: its median seed-adjusted z-score
a: -5.51

====

assay: Novel Modifiers of Survival Motor Neuron (SMN) Protein: Gene Identification via Genome-wide siRNA Screen; details: HEK293T SMN2-luciferase reporter, siRNA knockdown, 72 h; actives lie on both sides;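 note: luminescence tracks full-length SMN protein made from the SMN2 reporter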
Out of some 31,000 sequences screened, about 1,400 (4.5%) were called active.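 The calls were made as follows: active = median seed-adjusted z-score above 1 or below -1; inactive = the rest.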 The entries come from a sample that favours actives as a whole.
Form entry, call: pick from y (active), n (inactive)

q: What classification did GGGAGUCUUUCUUCGGGAATT against ABCG1 end up with in this test?
a: n

q: What classification did GCCUUCUCCCUAUUUGAUATT against CALM1 end up with in this test?
a: n

q: What classification did GGGAUCUAGUGAAUAAACUTT against EIF2B4 end up with in this test?
a: n

q: What classification did CUUGGAUGAUGGCAAGACATT against TCEB2 end up with in this test?
a: y

q: What classification did AAAGCGCAAUUGGUGGUAATT against DYNLT1 end up with in this test?
a: n

q: What classification did GCAAGGCGGUGUUUAUGGATT against DLX1 end up with in this test?
a: n

q: What classification did GGACUAAACUACCUCCAAATT against KCNE3 end up with in this test?
a: y

q: What classification did AGCCCUCUUCUGACACUAATT against SERPINH1 end up with in this test?
a: n

q: What classification did GGCUCAAGGGCUUUGCUGATT against ADSSL1 end up with in this test?
a: n

q: What classification did GCCAGAAUCCUUUAGCAGUTT against CRTC1 end up with in this test?
a: n

q: What classification did CACCCACCUCAGAUUGAUATT against MBTPS2 end up with in this test?
a: n

q: What classification did GAAGGACCCAGAUCUCUUUTT against ADCK1 end up with in this test?
a: n

q: What classification did GAAUUCAGCAUGACCGAUATT against GABPA end up with in this test?
a: y

q: What classification did GAAAGACACUGGGACUCGATT against SNRNP35 end up with in this test?
a: n

====

test: Novel Modifiers of Survival Motor Neuron (SMN) Protein: Gene Identification via Genome-wide siRNA Screen; details: HEK293T SMN2-luciferase reporter, siRNA knockdown, 72 h; actives lie on both sides;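 note: luminescence tracks full-length SMN protein made from the SMN2 reporter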
In all, about 31,000 sequences went through this assay and about 1,400 (4.5%) were called active. This is one part of a sample in which actives are shown more often than they occur.
PROPERTY_NAME: median seed-adjusted z-score
// no unit, no text: just the number

q: # input sequence: GGACUACUAUGCCACUGCUTT against SSTR4 ; wanted: its median seed-adjusted z-score
a: -0.00217

q: # input sequence: GGAAAUUCAGGUACGGAUATT against ADAMTS4 ; wanted: its median seed-adjusted z-score
a: -0.0153

q: # input sequence: GGAAGAAUUUCAGUCAGAATT against ZNF436 ; wanted: its median seed-adjusted z-score
a: 0.00767

====

assay: Novel Modifiers of Survival Motor Neuron (SMN) Protein: Gene Identification via Genome-wide siRNA Screen; conditions: HEK293T SMN2-luciferase reporter, siRNA knockdown, 72 h; actives lie on both sides;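 note: luminescence tracks full-length SMN protein made from the SMN2 reporter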
About 1,400 (4.5%) of roughly 31,000 sequences were called active.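 How the source made its calls: active means median seed-adjusted z-score above 1 or below -1; inactive means the rest.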 Many of the other results were omitted from the sample, so actives are more common in it than they were.
Form entry, call: pick from active, inactive

q: What classification did GGAACAAACCCUUAGCUAATT against SLITRK1 end up with in this test?
a: inactive

q: What classification did CAUGUGCUAUCGAAAGUAUTT against TCEB1 end up with in this test?
a: active

q: What classification did GGAAUGGAAUGAUCGGUGATT against GRIN2A end up with in this test?
a: inactive

====

assay: Novel Modifiers of Survival Motor Neuron (SMN) Protein: Gene Identification via Genome-wide siRNA Screen; conditions: HEK293T SMN2-luciferase reporter, siRNA knockdown, 72 h; actives lie on both sides;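 note: luminescence tracks full-length SMN protein made from the SMN2 reporter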
About 1,400 (4.5%) of roughly 31,000 sequences were called active.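 How the source made its calls: active means median seed-adjusted z-score above 1 or below -1; inactive means the rest.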 Only a selection was taken, and actives are over-represented in it overall.
Form entry, call: pick from 1 (yes) (active), 0 (no) (inactive)

q: What classification did ACAAGGACUAUUACAGAUATT against PLA2G2D end up with in this test?
a: 0 (no)

q: What classification did CGGUCAUUUCGUCGAGAUATT against HSF5 end up with in this test?
a: 0 (no)

q: What classification did GCUUGUUCCUUCAAUUAAATT against ZNF41 end up with in this test?
a: 0 (no)

q: What classification did GCGAAUUCAUAAGUCCAUUTT against MTMR9 end up with in this test?
a: 0 (no)

q: What classification did GUGGGAAAGUCUAUGGAAATT against KLF9 end up with in this test?
a: 0 (no)

q: What classification did GGACAAGACGCAAGAAGAATT against TEF end up with in this test?
a: 0 (no)

q: What classification did CCACAACGGACAGUCCAUATT against CYP17A1 end up with in this test?
a: 1 (yes)

q: What classification did CAGAUACUUUAGGACUCAATT against UGT2B4 end up with in this test?
a: 0 (no)

q: What classification did GUACCAGUCCAGUCCAUGATT against CDKN2D end up with in this test?
a: 0 (no)

q: What classification did AUCCGAUGGUGGUUACUGATT against MCOLN1 end up with in this test?
a: 0 (no)

q: What classification did GGCAUGACCUCAUCACAGUTT against RNASE7 end up with in this test?
a: 1 (yes)

q: What classification did GCUAAGUACAAAUCAUUCATT against FCN1 end up with in this test?
a: 0 (no)

q: What classification did CCAUGGAUUUUGUACUGCUTT against VPS35 end up with in this test?
a: 0 (no)

q: What classification did CAUAACCACUUUAAAGUCATT against GAB1 end up with in this test?
a: 0 (no)

q: What classification did CAGCUGCAAUUCUAGCUAATT against RETSAT end up with in this test?
a: 1 (yes)

q: What classification did GAGUGAGACUGGGACAAGATT against TAPBP end up with in this test?
a: 0 (no)

q: What classification did CCUACUCUGUUGUUCGAAATT against C3 end up with in this test?
a: 0 (no)

q: What classification did GCACUGUCACUAAGCAGAATT against CHEK2 end up with in this test?
a: 0 (no)

q: What classification did GGGUCCAACAUUCCGAAUATT against CHD1 end up with in this test?
a: 1 (yes)

q: What classification did GGAAUUCCUUUAAUGACGATT against RYR3 end up with in this test?
a: 0 (no)

====

experiment: Novel Modifiers of Survival Motor Neuron (SMN) Protein: Gene Identification via Genome-wide siRNA Screen; settings: HEK293T SMN2-luciferase reporter, siRNA knockdown, 72 h; actives lie on both sides;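 note: luminescence tracks full-length SMN protein made from the SMN2 reporter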
In all, about 31,000 sequences went through this assay and about 1,400 (4.5%) were called active. This is one part of a sample in which actives are shown more often than they occur.
PROPERTY_NAME: median seed-adjusted z-score
// no unit, no text: just the number

q: # input sequence: GUGACGGCUUUAGACCUGATT against PRTFDC1 ; wanted: its median seed-adjusted z-score
a: 0.493

q: # input sequence: GGACUACAGUAUACAUUGUTT against PCDH24 ; wanted: its median seed-adjusted z-score
a: 0.345

q: # input sequence: CAACUUCUAUAGUCGAAUATT against TXNDC3 ; wanted: its median seed-adjusted z-score
a: -0.649

q: # input sequence: GGUAAACGAGAUCAACUUUTT against DVL3 ; wanted: its median seed-adjusted z-score
a: -0.57

q: # input sequence: GAAGAAAUGUUGUUCGAAUTT against KAL1 ; wanted: its median seed-adjusted z-score
a: 0.0824

q: # input sequence: CGACCAUUGGAGAUGUUAATT against SCML2 ; wanted: its median seed-adjusted z-score
a: -0.538

q: # input sequence: CAACCAUAGUUAAAGUUAATT against TCP1 ; wanted: its median seed-adjusted z-score
a: -1.02

The reported measurements were obtained from PubChem BioAssay AID1347426.
